- procedure.summary: growth inhibition of DIPG glioma cells, dose response, cell-based, JHH-DIPG-1, MIPE4.0, CellTiter-Glo, qHTS (AID 1347062);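 on AC50: cells exposed to compound for two days before readout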
- settings: JHH-DIPG-1 viability, CellTiter-Glo ATP luminescence
Records with an inconclusive call do not appear. Calls of active or inactive are those of the source. Cut-off not given; nearly all actives show AC50 up to about 27 µM.
Return exactly one item of t (active), f (inactive)

Some solved entries appear below for comparison.
>>> cat("CC(C)C1CCC(C(=O)N[C@H](Cc2ccccc2)C(=O)O)CC1 (stereo partly specified)")
"f"
>>> cat("Cc1noc(NS(=O)(=O)c2ccc(N)cc2)c1C")
"f"
>>> cat("CN(C)CCOc1ccc(-c2nc(-c3ccc4c(c3)CC/C4=N\\O)c(-c3ccncc3)[nH]2)cc1")
"t"
>>> cat("c1ccc2[nH]c(-c3cscn3)nc2c1")
"f"
>>> cat("O=C(C1CCCCC1)N1CC(=O)N2CCc3ccccc3C2C1 (stereo unspecified)")
"f"

Called result for COc1cc([C@@H]2c3cc4c(cc3[C@H](O)[C@H]3COC(=O)[C@H]23)OCO4)cc(OC)c1OC
t

Called result for CCOC(=O)N1CCC(=C2c3ccc(Cl)cc3CCc3cccnc32)CC1
f

Called result for CC(C)C(=O)Nc1ccc([N+](=O)[O-])c(C(F)(F)F)c1
t

Called result for Oc1ccc(/C=C/c2cc(O)cc(O)c2)cc1
f

Called result for NC(=O)N1c2ccccc2CC(=O)c2ccccc21
f

Called result for Cn1c(=O)c2[nH]cnc2n(C)c1=O
f

###

- procedure.summary: stimulators of insulin release from INS-1E, primary screen, cell-based, 5 mM glucose, NPC library (AID 1117329); further: reference of the scale not given here
- settings: rat INS-1E insulin secretion, at 10 µM
Calls of active or inactive are those of the source.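 Rule for the calls: active = compound raises insulin release from rat beta cells at 5 mM glucose, no numeric limit stated; inactive = the rest.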
Return exactly one item of active, inactive

>>> cat("CC(C)[C@H]1CC[C@H](C)C[C@H]1O")
"inactive"
>>> cat("CN(C)CCc1c[nH]c2ccc(C[C@H]3COC(=O)N3)cc12")
"inactive"
>>> cat("CN1CCN(CCC(=O)N2c3ccccc3Sc3ccc(C(F)(F)F)cc32)CC1")
"inactive"

Called result for Nc1ncnc2c1ncn2CCOCP(=O)(O)O
inactive

Called result for O=C(O)Cc1ccccc1Oc1ccc(Cl)cc1Cl
inactive

Called result for COc1ccc2cc(C=O)ccc2c1
inactive

Called result for NS(=O)(=O)c1ccc(Cl)c(S(N)(=O)=O)c1
inactive

Called result for O=C(COCCOCCOCC(=O)Nc1c(I)cc(I)c(C(=O)O)c1I)Nc1c(I)cc(I)c(C(=O)O)c1I
inactive

Called result for CCN[C@@H]1C[C@H](N)[C@@H](OC2OC(CN)=CCC2N)[C@H](O)[C@H]1O[C@H]1OC[C@](C)(O)[C@H](NC)[C@H]1O (stereo partly drawn)
inactive

Called result for O=C(c1ccccc1)C(O)c1ccccc1 (stereo not drawn)
inactive

Called result for CCOCCOC(=O)/C=C/c1ccc(OC)cc1
inactive

Called result for COc1cc2c(cc1OC)C(=O)CC2
inactive

Called result for CCc1ccc(C(=O)C(C)CN2CCCCC2)cc1 (stereo not drawn)
inactive

Called result for C[C@]12C=CC(=O)C=C1CC[C@@H]1[C@@H]2C(=O)C[C@@]2(C)[C@H]1CC[C@]2(O)C(=O)CO
inactive

###

- procedure.summary: SU-DIPG-VI glioma cell viability, MIPE4.0 library, CellTiter-Glo luminescence, qHTS (AID 1347066);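 further: cells exposed to compound for 48 hours before readout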
- settings: CellTiter-Glo ATP luminescence
Records with an inconclusive call do not appear. The source made the active and inactive calls. The limit is not given here; nearly all actives have AC50 up to about 30 µM.
assay.readout: AC50

Observe how each entry below is paired with its result.
>>> observed_value("CC(C)NCC(O)c1ccc(O)c(O)c1 (stereo not drawn)")
"inactive"
>>> observed_value("Nc1nc2ccc(OC(F)(F)F)cc2s1")
"inactive"
>>> observed_value("CCn1c(-c2nonc2N)nc2cnc(Oc3cccc(NC(=O)c4ccc(OCCN5CCOCC5)cc4)c3)cc21")
"inactive"
>>> observed_value("Cn1cc(C2=C(c3c4n(c5ccccc35)CCC(CN)C4)C(=O)NC2=O)c2ccccc21 (stereo not drawn)")
"23.5 µM (active)"
>>> observed_value("CC1COc2c(N3CCN(C)CC3)c(F)cc3c(=O)c(C(=O)O)cn1c23 (stereo not drawn)")
"inactive"

Returns the measured AC50 for the input compound. Input: Cc1cn([C@H]2C[C@H](N=[N+]=[N-])[C@@H](CO)O2)c(=O)[nH]c1=O
inactive

Returns the measured AC50 for the input compound. Input: C/C=C/C(=O)N(CC)c1ccccc1C
inactive

Returns the measured AC50 for the input compound. Input: O=c1[nH]cnc2[nH]ncc12
inactive

###

- procedure.summary: CellTiter-Glo luminescent readout of SW480 viability loss, NPC library primary (AID 1117343)
- settings: CellTiter-Glo luminescence; at 20 µM (top of the series)
Activity calls are given as the source filed them.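 How the source made its calls: active means compounds that lower viability of the colon cancer cells in the luminescence readout, with no numeric limit stated; inactive means the rest.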
Return exactly one item of yes for active, no for inactive

>>> cat("Cc1ccc(-c2cc(C(F)(F)F)nn2-c2ccc(S(N)(=O)=O)cc2)cc1")
"yes"
>>> cat("C[C@@H]1C[C@H]2[C@@H]3CCC4=CC(=O)C=C[C@]4(C)[C@@]3(F)[C@@H](O)C[C@]2(C)[C@@]1(O)C(=O)CO")
"no"
>>> cat("C#Cc1ccc(-c2ccccc2F)cc1")
"no"
>>> cat("O=C(CCOCCOCCOCCOCCC(=O)Nc1c(I)cc(I)c(C(=O)O)c1I)Nc1c(I)cc(I)c(C(=O)O)c1I")
"no"

Called result for CCOC(=O)c1cccnc1
yes

###

Known z-score of a selection of compounds
- procedure.summary: activators of macrophage pro-inflammatory response, cell-based, murine, luminescence (AID 652131)
- settings: murine macrophage pro-inflammatory reporter, stronger effect = higher value
Calls of active or inactive are those of the source. The rule behind the calls is not given here.

>>> observed_value("Nc1nc(-c2ccc3c(c2)/C(=C\\c2cc(Br)c(O)c(Br)c2)C(=O)N3)cs1")
"2.85 (inactive)"

Returns the measured z-score for the input compound. Input: CCS(=O)(=O)c1ccc(OC)c(Nc2nccc(N(C)c3ccc4c(C)[nH]nc4c3)n2)c1
2.99 (inactive)

Returns the measured z-score for the input compound. Input: FC(F)(F)CNc1nccc(-c2cnn3ncccc23)n1
-1.22 (inactive)

Returns the measured z-score for the input compound. Input: Cc1ccc(C(=O)NC2CC2)cc1-c1ccc2[nH]ncc2c1
-0.645 (inactive)

Returns the measured z-score for the input compound. Input: CCc1nn2ncccc2c1-c1ccnc(NC2CC2)n1
-0.174 (inactive)

Returns the measured z-score for the input compound. Input: CN(C)c1cc2c(Nc3ccc4c(cnn4Cc4ccccc4)c3)ncnc2cn1
-0.608 (inactive)

Returns the measured z-score for the input compound. Input: COc1cc(/C=N/Nc2ncnc3c2cnn3Cc2ccccc2)ccc1O
1.23 (inactive)

Returns the measured z-score for the input compound. Input: CCN1CCC(CC(=O)Nc2n[nH]c3nc(-c4cccs4)c(Br)cc23)CC1
-0.532 (inactive)

Returns the measured z-score for the input compound. Input: CN(C)CCOc1ccc(-c2nc(-c3ccc4c(c3)CC/C4=N\O)c(-c3ccncc3)[nH]2)cc1
1.26 (inactive)

Returns the measured z-score for the input compound. Input: Fc1ccc(-c2ncn(C3CCNCC3)c2-c2ccnc(Oc3ccccc3)n2)cc1
0.32 (inactive)

Returns the measured z-score for the input compound. Input: CC1=C(C(=O)Nc2ccc3[nH]ncc3c2)C(c2ccc3ccccc3c2)CC(=O)N1 (stereo unspecified)
0.091 (inactive)

Returns the measured z-score for the input compound. Input: COc1cc(C)c(NC(=O)CN(C)C)cc1Nc1nc(Nc2cccc(F)c2C(N)=O)c2cc[nH]c2n1
5.12 (inactive)

Returns the measured z-score for the input compound. Input: c1ccc(Cc2nc3ccc(Nc4ncnc5ccccc45)cc3[nH]2)cc1
4.91 (inactive)

Returns the measured z-score for the input compound. Input: O=C1NC(=O)C(N2CCc3ccccc32)=C1c1ccc(Cl)cc1
-0.315 (inactive)

Returns the measured z-score for the input compound. Input: Cc1ccc(NC(=O)c2ccoc2)cc1-c1ccc(C(=O)NCC2CC2)cc1
-0.057 (inactive)

Returns the measured z-score for the input compound. Input: Cc1cc(O)cc(C)c1/C=C/c1cncc(C(N)=O)c1
0.198 (inactive)

###

- procedure.summary: activators of macrophage pro-inflammatory response, cell-based, murine, luminescence (AID 652131)
- settings: murine macrophage pro-inflammatory reporter, stronger effect = higher value
assay.readout: z-score
When you answer, write just the number.

Observe how each entry below is paired with its result.
>>> observed_value("NC(=O)c1sc(-n2cnc3cc(C(F)(F)F)ccc32)cc1OCc1ccccc1Br")
-0.704
>>> observed_value("Fc1ccc(Oc2nccc(-c3c(-c4ccc(F)cc4)ncn3C3CCNCC3)n2)cc1")
7.24
>>> observed_value("Cn1cc(/C=C2\\C(=O)Nc3cccnc32)c2ccccc21")
5.16
>>> observed_value("CCn1c(-c2nonc2N)nc2c(C#CC(C)(C)O)nc(OC[C@@H](N)c3ccccc3)cc21")
-1.1
>>> observed_value("COC(=O)Nc1nc2ccc(Oc3ccc(NC(=O)Nc4cc(C(F)(F)F)ccc4F)cc3)cc2s1")
-0.073

Returns the measured z-score for the input molecule. Input: NC(=O)c1ccc(Oc2nccc(-c3c(-c4ccc(F)cc4)ncn3C3CCNCC3)n2)cc1
0.154

Returns the measured z-score for the input molecule. Input: NS(=O)(=O)c1ccc(N=Nc2c(O)[nH]c3ccc(C(=O)NCCc4cnc[nH]4)cc23)cc1
-0.108

Returns the measured z-score for the input molecule. Input: CS(=O)(=O)CCNCc1ccc(-c2ccc3ncnc(Nc4ccc(OCc5ccccc5)c(C(F)(F)F)c4)c3c2)o1
0.401

Returns the measured z-score for the input molecule. Input: C[C@@H](Oc1cc(-n2cnc3ccc(OCC4CCN(C)CC4)cc32)sc1C(N)=O)c1ccccc1C(F)(F)F
-2
